test system: DU-145 prostate; assay: NCI tumour cell line growth inhibition, 48 h
measure name: TGI

{"compound": "Cc1cc(Nc2nc(-c3ccc(F)cc3)nc3ccccc23)n[nH]1", "measure name": "TGI", "result value": "> 48.9 µM"}
{"compound": "c1cc2ccc3cc4ncccc4c4ccc(c1)c2c34", "measure name": "TGI", "result value": "> 100 µM"}
{"compound": "C=CCN1CN(C2CCCCC2)CSC1=S", "measure name": "TGI", "result value": "> 26.4 µM"}
{"compound": "CC(=O)N1C(Nc2ccccc2)CCN1c1ccccc1 (stereo not drawn)", "measure name": "TGI", "result value": "> 10 µM"}
{"compound": "COc1cc2c(/C=C3\\C(=O)N(C)c4ccc(O)cc43)c[nH]c2cc1C", "measure name": "TGI", "result value": "16.1 µM"}
{"compound": "c1ccc(Cc2cc(-c3ccccc3)n[nH]2)cc1", "measure name": "TGI", "result value": "26.2 µM"}
{"compound": "Cc1ccc(NC(=O)c2cc(S(=O)(=O)Nc3n[nH]c(=O)n3-c3ccccc3)c(S)cc2Cl)cc1", "measure name": "TGI", "result value": "> 100 µM"}
{"compound": "Cc1c2c(nn1-c1ccc(S/N=C3\\SCC(=O)CN3Cc3ccccc3)cc1)-c1ccccc1CC2", "measure name": "TGI", "result value": "> 100 µM"}

---

Below is a list of entries, each paired with its recorded GI50 value.
tested on: PC-3 prostate; test: NCI tumour cell line growth inhibition, 48 h
measure name: GI50

{"compound": "COc1cccc(/C(COc2ccc3c(c2)oc(=O)c2ccccc23)=N\\O)c1", "assay system": "PC-3 prostate", "result value": "29.5 µM"}
{"compound": "O=C(OCc1nc2nc(Cl)nc(N3CCOCC3)c2[nH]1)n1ccnc1", "assay system": "PC-3 prostate", "result value": "1.69 µM"}
{"compound": "COc1cccc2c1C(=O)c1c(O)c3c(c(O)c1C2=O)C[C@@](O)(C(C)=O)C[C@@H]3O[C@H]1C[C@H](N)[C@H](O)[C@H](C)O1", "assay system": "PC-3 prostate", "result value": "0.108 µM"}
{"compound": "COc1ccccc1-c1cc(=O)c2c(C)ccnc2[nH]1", "assay system": "PC-3 prostate", "result value": "21 µM"}
{"compound": "C=CCNCCN1C(=O)c2ccc3c4c(ccc(c24)C1=O)C(=O)N(CCNCC=C)C3=O", "assay system": "PC-3 prostate", "result value": "1.34 µM"}
{"compound": "COc1ccc(C2C(C#N)=C(N)Oc3c2sc2c(F)cccc32)cc1 (stereo not given)", "assay system": "PC-3 prostate", "result value": "2.36 µM"}
{"compound": "C/C(=C1\\SC(=NCc2cccs2)NC1=O)c1ccc2ncccc2c1", "assay system": "PC-3 prostate", "result value": "12.7 µM"}
{"compound": "N[C@H]1C[C@@H]1c1ccc(-c2cccc(O)c2)cc1", "assay system": "PC-3 prostate", "result value": "26.4 µM"}
{"compound": "O=C(/C=C/c1cccs1)c1ccc(Cl)cc1Cl", "assay system": "PC-3 prostate", "result value": "33.2 µM"}
{"compound": "COc1cc(-c2cc(/C=C3\\C(=O)Nc4cc(Cl)ccc43)[nH]n2)cc(OC)c1OC", "assay system": "PC-3 prostate", "result value": "2.25 µM"}
